# System: 317291-083-R-J1-PDC complex spheroids, viability
# experiment.summary: Anticancer human tumor 317291-083-R-J1-PDC patient-derived soft tissue sarcoma cell line growth inhibition [GQUAD]; active = viability on the fitted dose curve at most 10% of control; inactive = the rest
# conditions.used: second compound 0.0316 µM; first compound 10 µM
Outcomes: active, inactive

molecule	group
CCCS(=O)(=O)Nc1ccc(F)c(C(=O)c2c[nH]c3ncc(-c4ccc(Cl)cc4)cc23)c1F + Cc1[nH]c2ccc(F)cc2c1-c1nc2c3cccnc3c3ncccc3c2[nH]1	inactive
CC(C)(O)C1CCC(Nc2ccc3ncc(-c4cccc(C(F)(F)F)c4)n3n2)CC1 (stereo unspecified) + Cc1cnc(CNC(=O)c2c(=O)c3ccc(N4CCCN(C)CC4)nc3n3c2sc2ccccc23)cn1	active
COc1ccc([C@@H](O)c2cc(-c3ncnc4cc(N5CCOCC5)ccc34)c(F)cc2Cl)nn1 + CN(C)c1ccc(Nc2c3ccc(NC(=O)CCN4CCCC4)cc3nc3cc(NC(=O)CCN4CCCC4)ccc23)cc1	inactive
O=c1[nH]cc(F)c(=O)[nH]1 + Cc1[nH]c2ccc(F)cc2c1-c1nc2c3cccnc3c3ncccc3c2[nH]1	inactive
COc1cccc2c1C(=O)c1c(O)c3c(c(O)c1C2=O)CC(O)(C(=O)CO)CC3OC1CC(N)C(O)C(C)O1 (stereo unspecified) + Cc1[nH]c2ccc(F)cc2c1-c1nc2c3cccnc3c3ncccc3c2[nH]1	active
Nc1ccn(C2OC(CO)C(O)C2(F)F)c(=O)n1 (stereo unspecified) + Cc1[nH]c2ccc(F)cc2c1-c1nc2c3cccnc3c3ncccc3c2[nH]1	inactive

* * *

# Tested on: 317291-083-R-J1-PDC complex spheroids, viability
# experiment.summary: Anticancer human tumor 317291-083-R-J1-PDC cell line growth inhibition [GQUAD]; active = viability on the fitted dose curve at most 10% of control; inactive = the rest;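 also: spheroids exposed to compounds for one week before readout; percent viability relative to DMSO vehicle wells taken as 100%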
# conditions.used: second compound 0.0316 µM; first compound 1 µM
Outcomes: yes = active, no = inactive

molecule	group
CCCS(=O)(=O)Nc1ccc(F)c(C(=O)c2c[nH]c3ncc(-c4ccc(Cl)cc4)cc23)c1F + Cc1[nH]c2ccc(F)cc2c1-c1nc2c3cccnc3c3ncccc3c2[nH]1	no
C=CC(=O)N1CCN(c2nc(=O)n(-c3c(C)ccnc3C(C)C)c3nc(-c4c(O)cccc4F)c(F)cc23)C(C)C1 (stereo unspecified) + Cc1cnc(CNC(=O)c2c(=O)c3ccc(N4CCCN(C)CC4)nc3n3c2sc2ccccc23)cn1	no
C=CCn1c(=O)c2cnc(Nc3ccc(N4CCN(C)CC4)cc3)nc2n1-c1cccc(C(C)(C)O)n1 + CN(C)c1ccc(Nc2c3ccc(NC(=O)CCN4CCCC4)cc3nc3cc(NC(=O)CCN4CCCC4)ccc23)cc1	no
C=CCn1c(=O)c2cnc(Nc3ccc(N4CCN(C)CC4)cc3)nc2n1-c1cccc(C(C)(C)O)n1 + Cc1[nH]c2ccc(F)cc2c1-c1nc2c3cccnc3c3ncccc3c2[nH]1	no
O=C(NO)c1cnc(N2CCN(S(=O)(=O)c3ccc4ccccc4c3)CC2)nc1 + CN(C)c1ccc(Nc2c3ccc(NC(=O)CCN4CCCC4)cc3nc3cc(NC(=O)CCN4CCCC4)ccc23)cc1	yes
Nc1ccn(C2OC(CO)C(O)C2(F)F)c(=O)n1 (stereo unspecified) + Cc1[nH]c2ccc(F)cc2c1-c1nc2c3cccnc3c3ncccc3c2[nH]1	no
COc1ccc([C@@H](O)c2cc(-c3ncnc4cc(N5CCOCC5)ccc34)c(F)cc2Cl)nn1 + CN(C)c1ccc(Nc2c3ccc(NC(=O)CCN4CCCC4)cc3nc3cc(NC(=O)CCN4CCCC4)ccc23)cc1	no
Nc1ccn(C2OC(CO)C(O)C2(F)F)c(=O)n1 (stereo unspecified) + CN(C)c1ccc(Nc2c3ccc(NC(=O)CCN4CCCC4)cc3nc3cc(NC(=O)CCN4CCCC4)ccc23)cc1	no
COc1cc(C2c3cc4c(cc3C(OC3OC5COC(C)OC5C(O)C3O)C3COC(=O)C23)OCO4)cc(OC)c1O (stereo unspecified) + Cc1cnc(CNC(=O)c2c(=O)c3ccc(N4CCCN(C)CC4)nc3n3c2sc2ccccc23)cn1	no
CC1COCCN1c1cc(C2(O)CC3CCC(C2)O3)c2cnn(-c3ccn[nH]3)c2n1 (stereo unspecified) + Cc1cnc(CNC(=O)c2c(=O)c3ccc(N4CCCN(C)CC4)nc3n3c2sc2ccccc23)cn1	no
CC1COCCN1c1cc(C2(S(C)(=N)=O)CC2)nc(-c2ccnc3[nH]ccc23)n1 (stereo unspecified) + Cc1cnc(CNC(=O)c2c(=O)c3ccc(N4CCCN(C)CC4)nc3n3c2sc2ccccc23)cn1	no

* * *

# Test system: 317291-083-R-J1-PDC complex spheroids, viability
# experiment.summary: Anticancer human tumor 317291-083-R-J1-PDC cell line growth inhibition [GQUAD];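 also: spheroids exposed to compounds for one week before readout; percent viability relative to DMSO vehicle wells taken as 100%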
# conditions.used: second compound 10 µM; first compound 3.16 µM; hits give low values
Listing of entries alongside the reported viability, T/C.
measured.parameter: viability, T/C (%)

compound	result.value
Nc1ccn(C2OC(CO)C(O)C2(F)F)c(=O)n1 (stereo unspecified) + CN(C)c1ccc(Nc2c3ccc(NC(=O)CCN4CCCC4)cc3nc3cc(NC(=O)CCN4CCCC4)ccc23)cc1	2.4
C=CCn1c(=O)c2cnc(Nc3ccc(N4CCN(C)CC4)cc3)nc2n1-c1cccc(C(C)(C)O)n1 + CN(C)c1ccc(Nc2c3ccc(NC(=O)CCN4CCCC4)cc3nc3cc(NC(=O)CCN4CCCC4)ccc23)cc1	0.21
CC(C)(O)C1CCC(Nc2ccc3ncc(-c4cccc(C(F)(F)F)c4)n3n2)CC1 (stereo unspecified) + CN(C)c1ccc(Nc2c3ccc(NC(=O)CCN4CCCC4)cc3nc3cc(NC(=O)CCN4CCCC4)ccc23)cc1	0.22
CC(C)n1c(=O)n(C)c2cnc3cc(F)c(-c4ccc(OCCCN5CCCCC5)nc4)cc3c21 + Cc1[nH]c2ccc(F)cc2c1-c1nc2c3cccnc3c3ncccc3c2[nH]1	85.2
O=c1[nH]cc(F)c(=O)[nH]1 + CN(C)c1ccc(Nc2c3ccc(NC(=O)CCN4CCCC4)cc3nc3cc(NC(=O)CCN4CCCC4)ccc23)cc1	9.24
Cc1cccc(N(C)C(=O)C2C(O)CCN2c2nc(C)cc(C(F)(F)F)c2C#N)c1 (stereo unspecified) + Cc1[nH]c2ccc(F)cc2c1-c1nc2c3cccnc3c3ncccc3c2[nH]1	92.5
CC1COCCN1c1cc(C2(S(C)(=N)=O)CC2)nc(-c2ccnc3[nH]ccc23)n1 (stereo unspecified) + CN(C)c1ccc(Nc2c3ccc(NC(=O)CCN4CCCC4)cc3nc3cc(NC(=O)CCN4CCCC4)ccc23)cc1	3.25
C=CC(=O)N1CCN(c2nc(=O)n(-c3c(C)ccnc3C(C)C)c3nc(-c4c(O)cccc4F)c(F)cc23)C(C)C1 (stereo unspecified) + Cc1[nH]c2ccc(F)cc2c1-c1nc2c3cccnc3c3ncccc3c2[nH]1	74.9
CCCS(=O)(=O)Nc1ccc(F)c(C(=O)c2c[nH]c3ncc(-c4ccc(Cl)cc4)cc23)c1F + Cc1cnc(CNC(=O)c2c(=O)c3ccc(N4CCCN(C)CC4)nc3n3c2sc2ccccc23)cn1	16.7
CCCS(=O)(=O)Nc1ccc(F)c(C(=O)c2c[nH]c3ncc(-c4ccc(Cl)cc4)cc23)c1F + Cc1[nH]c2ccc(F)cc2c1-c1nc2c3cccnc3c3ncccc3c2[nH]1	25.3
CC(C)n1c(=O)n(C)c2cnc3cc(F)c(-c4ccc(OCCCN5CCCCC5)nc4)cc3c21 + CN(C)c1ccc(Nc2c3ccc(NC(=O)CCN4CCCC4)cc3nc3cc(NC(=O)CCN4CCCC4)ccc23)cc1	0.55

* * *

# System: 317291-083-R-J1-PDC complex spheroids, viability
# experiment.summary: Anticancer human tumor 317291-083-R-J1-PDC cell line growth inhibition [GQUAD];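 also: spheroids exposed to compounds for one week before readout; percent viability relative to DMSO vehicle wells taken as 100%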
# conditions.used: second compound 0.316 µM; first compound 0.0999 µM; hits give low values
Rule: viability, T/C below 10% gives MET, anything at or above gives NOT MET.

compound	group
CC[C@@]1(O)C(=O)OCc2c1cc1n(c2=O)Cc2cc3c(CN(C)C)c(O)ccc3nc2-1 + Cc1cnc(CNC(=O)c2c(=O)c3ccc(N4CCCN(C)CC4)nc3n3c2sc2ccccc23)cn1	NOT MET
CC[C@@]1(O)C(=O)OCc2c1cc1n(c2=O)Cc2cc3c(CN(C)C)c(O)ccc3nc2-1 + CN(C)c1ccc(Nc2c3ccc(NC(=O)CCN4CCCC4)cc3nc3cc(NC(=O)CCN4CCCC4)ccc23)cc1	NOT MET
Cc1[nH]c2ccccc2c1CCNCc1ccc(/C=C/C(=O)NO)cc1 + Cc1[nH]c2ccc(F)cc2c1-c1nc2c3cccnc3c3ncccc3c2[nH]1	MET
Cc1[nH]c2ccccc2c1CCNCc1ccc(/C=C/C(=O)NO)cc1 + Cc1cnc(CNC(=O)c2c(=O)c3ccc(N4CCCN(C)CC4)nc3n3c2sc2ccccc23)cn1	NOT MET
CCc1c2c(nc3ccc(O)cc13)-c1cc3c(c(=O)n1C2)COC(=O)[C@]3(O)CC + Cc1cnc(CNC(=O)c2c(=O)c3ccc(N4CCCN(C)CC4)nc3n3c2sc2ccccc23)cn1	MET
